# experiment: NCI Yeast Anticancer Drug Screen. Data for the cln2 rad14 strain (AID 165);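 note: 0% = growth equal to vehicle treated cultures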
# condition_summary: S. cerevisiae cln2 rad14 strain, at 50.0 µM, active compounds read high
About 79,000 compounds went through this panel and 15% of them were active in at least one assay; those are over-represented in the sample as a whole.
reported_endpoint: growth inhibition (%)
Give the quantity in %, number only.

{"compound": "CCC1(C)C=Cc2c(cc(OC)c3c(=O)c4ccccc4n(C)c23)O1 (configuration not stated)", "reported_endpoint": "growth inhibition", "observed_value": -19.6}
{"compound": "CC(=O)n1cc(CC(C)O)c(=O)[nH]c1=O (configuration not stated)", "reported_endpoint": "growth inhibition", "observed_value": 4.85}

Please give the measured growth inhibition for this compound: CC(=O)c1ccc(NC(=O)CSc2nc(C)nc3c2sc(=S)n3-c2ccccc2)cc1
-24.1

Note, next up: CC(c1ccc([N+](=O)[O-])cc1)n1cnc2c(N(CCO)CCO)ncnc21 (configuration not stated)
-3.7

Same lookup for COc1cc(-c2cc(=O)c3cc4c(=O)cc(-c5cc(OC)c(OC)c(OC)c5)oc4cc3o2)cc(OC)c1OC , please.
-75

Request: COc1ccc(OC)c(C(=O)CCCCCCCCC(=O)c2cc(OC)ccc2OC)c1
25.4

Next up: Cc1cc(S(=O)(=O)Nc2n[nH]c(-c3ccc(Cl)cc3)n2)c(SSc2cc(Cl)c(C)cc2S(=O)(=O)Nc2n[nH]c(-c3ccc(Cl)cc3)n2)cc1Cl
34.7

Moving on to CCOC(=O)C1C(=S)NC(=O)C1C#N (configuration not stated)
0.75

Repeat with Cc1cc(C(=O)C=[N+]=[N-])c(CN2C(=O)c3ccccc3C2=O)c(=O)n1C
5.95

Cool, now CN(C)c1nc(=O)c2c(ccc3ccccc32)o1
14.7

Again, but for Cc1ccc(S(=O)(=O)N/N=C2\CCC3(C)C(=CCC4C3CCC3(C)C(C(C)CCCC(C)C)CCC43)C2(C)C)cc1 (configuration not stated)
2.75

Also NC(=O)NCC(N)C(=O)O (configuration not stated) , if possible.
1.55

* * *

# experiment: NCI Yeast Anticancer Drug Screen. Data for the cln2 rad14 strain (AID 165);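 note: 0% = growth equal to vehicle treated cultures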
# condition_summary: S. cerevisiae cln2 rad14 strain, at 50.0 µM, active compounds read high
About 79,000 compounds went through this panel and 15% of them were active in at least one assay; those are over-represented in the sample as a whole.
Overview of recorded growth inhibition for various compounds
Output spec: scalar in %, unitless text.

{"compound": "O=C1c2ccccc2C(=O)N1CCn1nc(-c2ccccc2)cc(-c2ccccc2)c1=O", "observed_value": 7.9}
{"compound": "CCCCNC(=S)N(CCCC)CCCC", "observed_value": -16.2}
{"compound": "C1CCOC2(CCC3(CC2)OCCCCO3)OC1", "observed_value": -44.2}

Name the recorded growth inhibition for COc1ccc2c(c1)CCC(c1nc3ccc(C)cc3[nH]c1=O)C2=O (stereo not given) .
9.1

Likewise for CCN(CC)C(=O)C1Cc2ccccc2N(C)C1 (stereo not given) ?
-41.5

Consider next the compound CCC(C)(C)c1ccc(OCCOc2ccc(C(=O)O)cc2[N+](=O)[O-])cc1 in the same way.
-17.6

Same lookup for CCOC(=O)C1=C(c2ccccc2)N=c2ccccc2=S1C (stereo not given) , please.
-3.35

Further, for N#Cc1ccc(/C=C\c2ccc(C#N)cc2)cc1 ?
6.05

Follow-up entry: COC(=O)CC(NC(=O)CNC(=O)OCc1ccccc1)C(=O)NCC(=O)Oc1ccc([N+](=O)[O-])cc1 (stereo not given)
15.1

Same question, Cn1c(N)nc2c1c(=O)[nH]c(=O)n2C this time
13.2

Now give it for Cc1ccc(-n2c(C)nc3c(c(C)c(C)n3-c3ccccc3)c2=N)cc1 too.
-19

Also check COc1ccc(/C=N/Nc2nc(C)c(C)s2)cc1
11.4

Try this compound too: O=C1CCC(=O)C(C(=O)CCC(=O)Nc2cccc(Cl)c2)C1 (stereo not given)
19.8

Same thing, different compound: C=C1c2nc3ccccc3n2C=C(c2ccc(C)cc2)N1c1ccc(OC)cc1
15.5

Do the same for Cc1cc(C)c(Cc2c(C)cc(C)cc2C)c(C)c1 please
-2.85

Then what about the compound CC(=O)O[C@@H]1C[C@]2(C)[C@@H](C(C)=O)CC[C@H]2[C@@H]2CCC3=CC(=O)CC[C@]3(C)[C@H]21 ?
11.4
